# tgt: W318A mutant MOR (Mus musculus, UniProt P42866, W318A)
# Sequence (P42866 whole entry W318A): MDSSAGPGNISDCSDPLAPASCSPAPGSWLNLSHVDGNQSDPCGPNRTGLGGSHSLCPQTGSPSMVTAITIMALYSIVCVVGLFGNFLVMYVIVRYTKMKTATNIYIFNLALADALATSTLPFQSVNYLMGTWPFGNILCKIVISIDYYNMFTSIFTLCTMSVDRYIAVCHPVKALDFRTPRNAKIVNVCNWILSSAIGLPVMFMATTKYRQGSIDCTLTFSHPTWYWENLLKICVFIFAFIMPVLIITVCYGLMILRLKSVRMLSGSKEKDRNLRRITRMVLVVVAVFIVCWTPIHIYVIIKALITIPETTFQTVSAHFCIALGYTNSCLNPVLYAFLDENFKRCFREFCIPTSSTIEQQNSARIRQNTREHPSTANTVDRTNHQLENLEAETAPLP
pIC50: −log10 of the molar value.
result_type: pIC50

Data request: Need pIC50, item `O=C(N[C@H]1CC[C@@]2(O)[C@H]3Cc4ccc(O)c5c4[C@@]2(CCN3CC2CC2)[C@H]1O5)c1cc2ccccc2cn1`
Data returned: < 6.00

----------
# System: morphine antinociception
# experimental_protocol: warm-water tail immersion test, blockade of morphine antinociception
# conditions: sc, 5 min before morphine 10 mg/kg sc; 56 °C; tested 20 min later
result_type: AD50 value (mg/kg (95% CL)) for blockade of morphine antinociception

Example results:
compound="C=CCN1CC[C@]23c4c5ccc(O)c4O[C@H]2C(=O)CC[C@@]3(O)[C@H]1C5 [naloxone, reference compound]" data_value="0.05 (0.03–0.09) mg/kg"
compound="O=C(N[C@@H]1CC[C@@]2(O)[C@H]3Cc4ccc(O)c5c4[C@@]2(CCN3CC2CC2)[C@H]1O5)c1cnc2ccccc2c1 [Compound 14]" data_value="42.55 (23.67–76.51) mg/kg"
compound="O=C(N[C@H]1CC[C@@]2(O)[C@H]3Cc4ccc(O)c5c4[C@@]2(CCN3CC2CC2)[C@H]1O5)c1cnc2ccccc2c1 [Compound 13]" data_value="4.45 (2.41–8.15) mg/kg"

Let us examine a further case.
Data request: Missing value: AD50 value (mg/kg (95% CL)) for blockade of morphine antinociception, morphine antinociception, entry O=C(N[C@H]1CC[C@@]2(O)[C@H]3Cc4ccc(O)c5c4[C@@]2(CCN3CC2CC2)[C@H]1O5)c1cc2ccccc2cn1 [Compound 9] . Fill in?
Data returned: 0.45 (0.27–0.78) mg/kg
